Please go through the items and note down their IC50.
Biological target: PIM3 (Homo sapiens, UniProt Q86V86)
One number for each entry, in nM.

[[record]]
compound = "Nc1sc(-c2c(F)cccc2F)nc1C(=O)Nc1cncnc1OCC1CCNCC1 [EXAMPLE 2]"
measurement_unit = "nM"
endpoint_result = 4.36


As a next step, examine the compound that follows.
Nc1sc(-c2c(F)cccc2F)nc1C(=O)Nc1cncnc1OCC1CCNCC1 [EXAMPLE 1] yielded IC50 of 23

----------
Target: PIM2 (Homo sapiens, UniProt Q9P1W9)
Sequence (Q9P1W9 whole entry): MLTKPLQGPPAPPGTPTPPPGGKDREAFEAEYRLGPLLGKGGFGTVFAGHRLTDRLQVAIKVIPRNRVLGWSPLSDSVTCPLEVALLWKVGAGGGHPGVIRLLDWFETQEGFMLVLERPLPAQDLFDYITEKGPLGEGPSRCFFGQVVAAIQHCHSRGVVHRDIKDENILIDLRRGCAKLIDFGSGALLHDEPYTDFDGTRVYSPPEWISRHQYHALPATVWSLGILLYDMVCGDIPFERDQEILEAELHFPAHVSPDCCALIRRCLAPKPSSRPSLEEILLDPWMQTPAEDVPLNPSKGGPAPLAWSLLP
Quantity Kind: pIC50
Answers are plain numbers, as −log10 of the molar value.

[[record]]
molecule = "Nc1sc(-c2c(F)cccc2F)nc1C(=O)Nc1cncnc1OCC1CCNCC1 [EXAMPLE 1]"
endpoint_result = 8.09


Nc1sc(-c2c(F)cccc2F)nc1C(=O)Nc1cncnc1OCC1CCNCC1 [EXAMPLE 2] yielded pIC50 of 8.81
